Reference source for all entries: ChEMBL document CHEMBL3734732

Record form. Attribute: pIC50. Fill in for each entry.
target: LSD1/CoREST complex (Homo sapiens, UniProt O60341); assay: Inhibition of human recombinant LSD1/CoREST protein expressed in Escherichia coli using monomethylated H3-K4 peptide (21 amino acids) as substrate preincubated for 15 mins followed by substrate addition measured for 12 mins by HRP-coupled Ultrared detection system-based fluorescence analysis
One number for each entry, as −log10 of the molar value.

// known answers, use as guide
molecule	pIC50
N[C@@H]1C[C@H]1c1ccc(NC(=O)CNC(=O)OCc2ccccc2)cc1 (relative stereo)	6.52
N[C@@H]1C[C@H]1c1ccc(NC(=O)c2ccc[nH]2)cc1	6.79
N[C@@H]1C[C@H]1c1ccc(NC(=O)C2CCCN2C(=O)OCc2ccccc2)cc1 (relative stereo)	7.21
N[C@@H]1C[C@H]1c1ccc(NC(=O)c2cc3ccccc3[nH]2)cc1	7.19
N[C@@H]1C[C@H]1c1ccc(NC(=O)c2cccn2CC(=O)c2ccccc2)cc1 (relative stereo)	5.88

In the following, a different molecule is considered.
Give me measured pIC50, please, for this molecule: N[C@@H]1C[C@H]1c1ccc(NC(=O)c2cccn2C(=O)OCc2ccccc2)cc1 (relative stereo)
7.49

---

For each entry below, report its Ratio IC50 value.
target: LSD1/CoREST complex (Homo sapiens) (UniProt O60341+Q9UKL0); assay: Potency index, ratio of trans-benzyl 1-(4-(2-aminocyclopropyl)phenylamino)-1-oxo-3-phenylpropan-2-ylcarbamate hydrochloride IC50 to compound IC50 for human recombinant LSD1/CoREST protein expressed in Escherichia coli
Sequence (Q9UKL0 whole entry, looked up, other chains not shown): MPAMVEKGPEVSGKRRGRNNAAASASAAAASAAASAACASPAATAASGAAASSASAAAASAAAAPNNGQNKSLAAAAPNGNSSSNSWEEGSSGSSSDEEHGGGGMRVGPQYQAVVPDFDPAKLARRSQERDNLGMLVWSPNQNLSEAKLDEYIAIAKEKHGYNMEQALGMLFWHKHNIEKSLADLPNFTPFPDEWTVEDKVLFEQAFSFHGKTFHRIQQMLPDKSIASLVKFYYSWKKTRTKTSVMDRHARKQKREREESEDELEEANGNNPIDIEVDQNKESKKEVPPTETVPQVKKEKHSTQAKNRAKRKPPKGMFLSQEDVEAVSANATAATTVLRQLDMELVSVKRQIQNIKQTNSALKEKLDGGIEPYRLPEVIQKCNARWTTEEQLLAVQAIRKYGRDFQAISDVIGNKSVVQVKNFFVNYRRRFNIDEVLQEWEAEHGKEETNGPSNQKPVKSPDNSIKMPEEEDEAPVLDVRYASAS
One number for each entry.

molecule	data.value
Cl.N[C@@H]1C[C@H]1c1ccc(NC(=O)c2cc3ccccc3n2C(=O)OCc2ccccc2)cc1 (relative stereo)	3.7
N[C@@H]1C[C@H]1c1ccc(NC(=O)C2CCCN2C(=O)OCc2ccccc2)cc1 (relative stereo)	2
N[C@@H]1C[C@H]1c1ccc(NC(=O)c2cccn2C(=O)OCc2ccccc2)cc1 (relative stereo)	5
N[C@@H]1C[C@H]1c1ccc(NC(=O)c2cc3ccccc3[nH]2)cc1	2
N[C@@H]1C[C@H]1c1ccc(NC(=O)c2ccn(C(=O)OCc3ccccc3)c2)cc1	3
N[C@@H]1C[C@H]1c1ccc(NC(=O)c2cc3ccccc3n2CC(=O)Nc2ccccc2)cc1 (relative stereo)	2

Provide Ratio IC50 value for the following molecule: Cl.N[C@@H]1C[C@H]1c1ccc(NC(=O)c2cn(C(=O)OCc3ccccc3)c3ccccc23)cc1 (relative stereo)
1.7

---

Kindly state IC50 for each of the entries shown.
biological target: Amine oxidase [flavin-containing] B (Homo sapiens); test: Inhibition of human recombinant MAO B expressed in Pichia pastoris using benzylamine as substrate preincubated for 15 mins followed by substrate addition by horseradish peroxidase coupled-spectrofluorimetric assay
Sequence (P27338 whole entry): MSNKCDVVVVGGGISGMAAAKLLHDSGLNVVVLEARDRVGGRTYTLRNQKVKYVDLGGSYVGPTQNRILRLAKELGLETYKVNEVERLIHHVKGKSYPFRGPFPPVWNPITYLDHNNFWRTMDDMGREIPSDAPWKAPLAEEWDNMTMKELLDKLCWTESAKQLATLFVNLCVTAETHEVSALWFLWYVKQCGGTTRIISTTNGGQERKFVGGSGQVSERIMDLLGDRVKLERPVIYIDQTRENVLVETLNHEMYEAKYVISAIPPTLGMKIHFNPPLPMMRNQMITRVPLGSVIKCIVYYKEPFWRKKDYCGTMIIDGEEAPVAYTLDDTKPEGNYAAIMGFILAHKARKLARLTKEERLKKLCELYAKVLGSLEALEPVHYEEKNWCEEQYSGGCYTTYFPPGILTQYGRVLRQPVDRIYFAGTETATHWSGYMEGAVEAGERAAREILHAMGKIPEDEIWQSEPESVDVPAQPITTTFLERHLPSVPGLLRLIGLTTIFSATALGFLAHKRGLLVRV
One number for each entry, in µM.

molecule	IC50, µM
N[C@@H]1C[C@H]1c1ccc(NC(=O)c2ccn(C(=O)OCc3ccccc3)c2)cc1	3.9

Query molecule follows.
Return reported IC50. Input molecule: N[C@@H]1C[C@H]1c1ccc(NC(=O)c2cccn2C(=O)OCc2ccccc2)cc1 (relative stereo)
75.8

---

biological target: Amine oxidase [flavin-containing] A (Homo sapiens, UniProt P21397); assay: Inhibition of human recombinant MAO A expressed in Pichia pastoris using kynuramine as substrate preincubated for 15 mins followed by substrate addition by horseradish peroxidase coupled-spectrofluorimetric assay
Sequence (P21397 whole entry): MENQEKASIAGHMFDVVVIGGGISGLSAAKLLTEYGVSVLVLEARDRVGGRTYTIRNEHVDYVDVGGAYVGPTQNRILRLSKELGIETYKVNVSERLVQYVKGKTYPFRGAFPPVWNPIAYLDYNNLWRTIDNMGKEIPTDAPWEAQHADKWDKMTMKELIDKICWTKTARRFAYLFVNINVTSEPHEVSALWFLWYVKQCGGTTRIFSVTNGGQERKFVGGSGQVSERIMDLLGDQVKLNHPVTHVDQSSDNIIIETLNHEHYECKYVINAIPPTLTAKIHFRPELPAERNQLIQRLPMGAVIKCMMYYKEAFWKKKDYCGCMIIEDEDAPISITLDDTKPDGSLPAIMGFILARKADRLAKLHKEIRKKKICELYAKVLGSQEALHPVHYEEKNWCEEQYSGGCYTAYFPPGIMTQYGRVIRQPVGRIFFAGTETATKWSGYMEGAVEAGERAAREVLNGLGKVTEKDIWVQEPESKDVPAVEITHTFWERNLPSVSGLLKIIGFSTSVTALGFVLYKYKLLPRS
For each entry below, report its IC50 value.
Give bare numbers, in nM.

# annotated cases, reported IC50 shown
compound	IC50 [nM]
Cl.N[C@@H]1C[C@H]1c1ccc(NC(=O)c2cn(C(=O)OCc3ccccc3)c3ccccc23)cc1 (relative stereo)	460
Cl.N[C@@H]1C[C@H]1c1ccc(NC(=O)c2cc3ccccc3n2C(=O)OCc2ccccc2)cc1 (relative stereo)	160
N[C@@H]1C[C@H]1c1ccc(NC(=O)c2ccn(C(=O)OCc3ccccc3)c2)cc1	110

Indicate its recorded IC50; the compound in question is N[C@@H]1C[C@H]1c1ccc(NC(=O)c2cccn2C(=O)OCc2ccccc2)cc1 (relative stereo)
260

---

species on record: Homo sapiens; test: Selectivity ratio of IC50 for human recombinant MAO A to IC50 for human recombinant LSD1/CoREST
recorded.metric: Ratio IC50

Some solved entries appear below for comparison.
compound	recorded.metric	data.value
Cl.N[C@@H]1C[C@H]1c1ccc(NC(=O)c2cc3ccccc3n2C(=O)OCc2ccccc2)cc1 (relative stereo)	Ratio IC50	< 8
N[C@@H]1C[C@H]1c1ccc(NC(=O)c2cccn2C(=O)OCc2ccccc2)cc1 (relative stereo)	Ratio IC50	< 8
N[C@@H]1C[C@H]1c1ccc(NC(=O)c2ccn(C(=O)OCc3ccccc3)c2)cc1	Ratio IC50	< 8

We now examine a further compound.
Hello, please tell me recorded Ratio IC50 for this one: Cl.N[C@@H]1C[C@H]1c1ccc(NC(=O)c2cn(C(=O)OCc3ccccc3)c3ccccc23)cc1 (relative stereo)
< 8

---

target: LSD1/CoREST complex (Homo sapiens, UniProt O60341); assay: Inhibition of human recombinant LSD1/CoREST protein expressed in Escherichia coli using monomethylated H3-K4 peptide (21 amino acids) as substrate preincubated for 15 mins followed by substrate addition measured for 12 mins by HRP-coupled Ultrared detection system-based fluorescence analysis
pIC50: −log10 of the molar value.
Rule: pIC50 under 7 gives F, otherwise T.

Use these answered entries as a reference point.
molecule	qualitative.label
N[C@@H]1C[C@H]1c1ccc(NC(=O)c2ccn(C(=O)OCc3ccccc3)c2)cc1	T
N[C@@H]1C[C@H]1c1ccc(NC(=O)c2cc3ccccc3n2CC(=O)NCc2ccccc2)cc1 (relative stereo)	F
N[C@@H]1C[C@H]1c1ccc(NC(=O)c2cc3ccccc3n2CC(=O)c2ccccc2)cc1 (relative stereo)	F

Could you please find out whether Cl.N[C@@H]1C[C@H]1c1ccc(NC(=O)c2cc3ccccc3n2C(=O)OCc2ccccc2)cc1 (relative stereo) has pIC50 that meets 7 or exceeds it?
T

---

target: LSD1/CoREST complex (Homo sapiens, UniProt O60341); assay: Inhibition of human recombinant LSD1/CoREST protein expressed in Escherichia coli using monomethylated H3-K4 peptide (21 amino acids) as substrate preincubated for 15 mins followed by substrate addition measured for 12 mins by HRP-coupled Ultrared detection system-based fluorescence analysis
recorded.metric: pIC50
Give bare numbers, as −log10 of the molar value.

Take a look at these entries with their results.
compound	data.value
N[C@@H]1C[C@H]1c1ccc(NC(=O)c2cc3ccccc3n2CC(=O)Nc2ccccc2)cc1 (relative stereo)	7.06
N[C@@H]1C[C@H]1c1ccc(NC(=O)c2cccn2CC(=O)Nc2ccccc2)cc1 (relative stereo)	6.90
N[C@@H]1C[C@H]1c1ccc(NC(=O)c2cccn2CC(=O)NCc2ccccc2)cc1 (relative stereo)	6.81

// switching to the query compound
Supply measured pIC50 of Cl.N[C@@H]1C[C@H]1c1ccc(NC(=O)c2cn(C(=O)OCc3ccccc3)c3ccccc23)cc1 (relative stereo) in your reply.
7.07
